test: 2-week rat toxicology and toxicokinetic study; type: in vivo; settings: both sexes, Crl:CD(SD)IGS BR, rat, in vivo; oral gavage, 14 days; read-out: NOAEL for systemic toxicity
experimental endpoint: NOAEL at 14 days (mg/kg/day)
Give a bare numeral; the unit mg/kg/day is implied.

Record Clc1ccc([C@]23CNC[C@H]2C3)cc1Cl , field NOAEL at 14 days: 40

====

assay: 13-week dog toxicity and toxicokinetic study; assay type: in vivo; settings: male, beagle, dog, in vivo, po, 6 mg/kg/day, males, 6 mg/kg/day, Day 0; read-out: AUC0-24
experimental endpoint: AUC(0-t) (ng·h/mL)
Your answer is read as ng·h/mL, so omit the unit and give the number.

The measured AUC(0-t) associated with Clc1ccc([C@]23CNC[C@H]2C3)cc1Cl [amitifadine] reads 12800

====

assay: Single rising oral dose (10-150 mg IR) safety, tolerance and pharmacokinetics in healthy male volunteers; type: in vivo, human; settings: male, human, plasma, oral, 25 mg, Geometric Mean; read-out: t1/2 (converted)
experimental endpoint: half-life (h)
Return type: number; implicit unit h.

Quick note, half-life for Clc1ccc([C@]23CNC[C@H]2C3)cc1Cl landed at 2.97

====

experiment: 26-week rat toxicity and toxicokinetic study; assay type: in vivo; settings: male, Crl:CD(SD)IGS BR, rat, in vivo, po, 25 mg/kg/day, males, 25 mg/kg/day, Day 0
experimental endpoint: Cmax (ng/mL)
Only the number, expressed in ng/mL, is required.

// sample Clc1ccc([C@]23CNC[C@H]2C3)cc1Cl , its Cmax was 2600

====

test: Acute intravenous or oral rat bioavailability study; format: in vivo; settings: plasma, oral 10 mg/kg vs IV 5 mg/kg, both sexes, read-out: absolute oral bioavailability
experimental endpoint: bioavailability

Given item Clc1ccc([C@]23CNC[C@H]2C3)cc1Cl [amitifadine] , the value recorded as its bioavailability is ≥ 77%

====

assay: Single rising oral dose (10-150 mg IR) safety, tolerance and pharmacokinetics in healthy male volunteers; format: in vivo, human; settings: male, human, plasma, oral, 150 mg, Median; read-out: t1/2 (converted)
experimental endpoint: half-life (h)
Unit h implied. Number only.

The molecule listed as Clc1ccc([C@]23CNC[C@H]2C3)cc1Cl shows half-life equal to 3.68

====

experiment: 13-week dog toxicity and toxicokinetic study; type: in vivo; settings: female, beagle, dog, in vivo, po, 20 mg/kg/day, females, 20 mg/kg/day, Day 86
experimental endpoint: Tmax (h)
Please reply with the bare figure in h and do not write the unit itself.

Quick note, Tmax for Clc1ccc([C@]23CNC[C@H]2C3)cc1Cl landed at 1

====

test: Single dose 300 mg / 450 mg pharmacokinetic, safety and tolerability study in healthy male and female subjects; settings: female, human, plasma, po, 450 mg, t½ (Harmonic mean), single oral 450 mg DOV 21,947 HCl IR, N = 5
experimental endpoint: half-life (h)
Record the value in h, omitting the unit from your answer.

1. O=C1NCC2(c3ccc(Cl)c(Cl)c3)CC12 (centres unmarked) [EB-10101] :: 24.5

Record Clc1ccc([C@]23CNC[C@H]2C3)cc1Cl [amitifadine] , field half-life: 3.57

====

assay: 2-week rat toxicology and toxicokinetic study; format: in vivo; settings: female, Crl:CD (SD)IGS BR, rat, in vivo, po, 20 mg/kg/day, females, 20 mg/kg/day, Day 0
experimental endpoint: Tmax (h)
A number alone suffices; assume h.

Form: compound = Clc1ccc([C@]23CNC[C@H]2C3)cc1Cl [amitifadine] ; Tmax = 1

====

assay: 26-week rat toxicity and toxicokinetic study; assay type: in vivo; conditions: female, Crl:CD(SD)IGS BR, rat, in vivo, po, 25 mg/kg/day, females, 25 mg/kg/day, Day 177
experimental endpoint: Tmax (h)
Field format: number, assumed h, no unit text.

For record Clc1ccc([C@]23CNC[C@H]2C3)cc1Cl [amitifadine] the listed Tmax is 1

====

Assay: Rat CNS study (functional observational battery, locomotor activity)
Details: both sexes, Crl:CD(SD)IGS BR, in vivo, single oral gavage, read-out: NOAEL for CNS toxicity
Method: There were eight animals of each gender per group. Functional observational battery (FOB) assessments and automated 1-hour locomotor activity data were recorded for all animals 7 days prior to dose administration (pre-test), and again beginning 1 hour following dosing on Day 0. Following completion of the FOB and locomotor activity evaluations, all animals were euthanized and discarded.
experimental endpoint: NOAEL (mg/kg)
A number alone suffices; assume mg/kg.

Reported NOAEL ( Clc1ccc([C@]23CNC[C@H]2C3)cc1Cl ) = 100

====

experiment: 2-week rat toxicology and toxicokinetic study; assay type: in vivo; details: female, Crl:CD (SD)IGS BR, rat, in vivo, po, 20 mg/kg/day, females, 20 mg/kg/day, Day 13
experimental endpoint: Tmax (h)
Express the result in h but write the number alone.

response.value for Clc1ccc([C@]23CNC[C@H]2C3)cc1Cl (field: Tmax) = 1

====

test: 26-week rat toxicity and toxicokinetic study; assay type: in vivo; conditions: female, Crl:CD(SD)IGS BR, rat, in vivo, po, […], females, […], Day 0
experimental endpoint: Tmax (h)
Provide the reading as a plain figure in h.

What the record says about Clc1ccc([C@]23CNC[C@H]2C3)cc1Cl : Tmax is 2

====

assay: Rat developmental toxicity study with toxicokinetics; format: in vivo; conditions: female, Crl:CD(SD)IGS BR, rat, in vivo, oral, 10 mg/kg/day, pregnant rats, 10 mg/kg/day, GD 17; read-out: AUC0-24
experimental endpoint: AUC(0-t) (ng·h/mL)
Number only, in ng·h/mL; omit the unit.

Record Clc1ccc([C@]23CNC[C@H]2C3)cc1Cl , field AUC(0-t): 11200

====

assay: Single rising oral dose (10-150 mg IR) safety, tolerance and pharmacokinetics in healthy male volunteers; format: in vivo, human; settings: male, human, plasma, oral, 10 mg, Geometric Mean; read-out: Tmax
experimental endpoint: Tmax (min)
Your answer should be a plain number; it is taken to be in min.

The recorded Tmax for entry Clc1ccc([C@]23CNC[C@H]2C3)cc1Cl equals 41.8

====

test: 13-week mouse toxicity and toxicokinetic study; conditions: female, Crl:CD-1(ICR) BR, in vivo, po, 30 mg/kg/day, Cmax
experimental endpoint: Cmax (ng/mL)
Value expressed in ng/mL; do not type the unit.

Input Clc1ccc([C@]23CNC[C@H]2C3)cc1Cl . Output Cmax: 972

====

assay: 2-week rat toxicology and toxicokinetic study; format: in vivo; conditions: female, Crl:CD (SD)IGS BR, rat, in vivo, po, 20 mg/kg/day, females, 20 mg/kg/day, Day 0; read-out: AUC0-24
experimental endpoint: AUC(0-t) (ng·h/mL)
Answer in ng·h/mL, number only, no unit symbol.

Lab note: measured AUC(0-t) of Clc1ccc([C@]23CNC[C@H]2C3)cc1Cl was 28600

====

assay: Single dose 300 mg / 450 mg pharmacokinetic, safety and tolerability study in healthy male and female subjects; details: male, human, plasma, po, 450 mg
Cmax listing for selected molecules.
Report only the number, with the unit ng/mL understood.

1. O=C1NCC2(c3ccc(Cl)c(Cl)c3)CC12 (centres unmarked) [EB-10101] :: 2550

// below: Cmax requested for another molecule
The molecule listed as Clc1ccc([C@]23CNC[C@H]2C3)cc1Cl [amitifadine] shows Cmax equal to 5680

====

assay: Multiple-dose safety and PK study 25 mg BID and 50 mg BID for 10 days; format: in vivo, human; conditions: male, human, in vivo, 50 mg, 50 mg BID; Day 1; healthy male subjects; mean (SD)
experimental endpoint: half-life (h)
Answer format: numeric, h implied, no suffix.

Summary for this compound, Clc1ccc([C@]23CNC[C@H]2C3)cc1Cl [amitifadine] : half-life is 3.19

====

test: 13-week mouse toxicity and toxicokinetic study; conditions: male, Crl:CD-1(ICR) BR, in vivo, po, 10 mg/kg/day, Cmax
experimental endpoint: Cmax (ng/mL)
Just the number in ng/mL, nothing appended.

Item: Clc1ccc([C@]23CNC[C@H]2C3)cc1Cl | Cmax: 288

====

Test: 12-month dog toxicity and toxicokinetic study
Type: in vivo
Conditions: female, beagle, dog, plasma, po, 15 mg/kg/day, females, 20 (15) mg/kg/day, Day 358
Protocol: Blood samples were collected on Days 0, 91, 181, 268 and 358 from up to 4 animals/gender/group. Plasma samples collected on Days 91, 181, 268, as well as all plasma samples collected from the control group were not evaluated. For toxicology assessment four dogs of each gender were included in each group. Assessments included clinical observations, body weight, and food consumption measures which were recorded periodically during the study. […]
experimental endpoint: Tmax (h)
Express your answer in h, writing the number without its unit.

Please fill in: Tmax reported for Clc1ccc([C@]23CNC[C@H]2C3)cc1Cl [amitifadine] = 1.2

====

experiment: Single rising oral dose (10-150 mg IR) safety, tolerance and pharmacokinetics in healthy male volunteers; type: in vivo, human; settings: male, human, plasma, oral, 100 mg, Mean (n = 7)
experimental endpoint: AUC(0-inf) (ng·h/mL)
Numbers only; they are read as ng·h/mL.

Consider Clc1ccc([C@]23CNC[C@H]2C3)cc1Cl . Its measured AUC(0-inf) is 4880

Provenance of the data: patent US20160346249A1
